Tested on: Streptococcus pneumoniae (ATCC6305)
Experiment: Microtitre plate assay, IC90 determination, SPN 6305
Type: cell-based
Conditions: Streptococcus pneumoniae, ATCC6305, 24 h, 90% inhibitory concentration for bacterial growth, 37° C., resazurin fluorescence, read-out: IC90 (μg/ml) SPN 6305
# note: boundary value 10 µg/mL maps to Criterion not met; IC90 below it maps to Criterion met

Here's what some known entries look like.
molecule: COc1nc2ccc(-c3ccco3)cc2cc1C(c1ccccc1)C(O)(CCN(C)C)c1cccc2ccccc12 (stereo not shown)
classification: Criterion not met
//
molecule: COc1nc2ccc(Br)cc2cc1C(c1ccccc1)C(O)(CCn1ccnc1)c1ccccc1 (stereo not shown)
classification: Criterion not met

Now consider a different molecule.
Challenge: API: query returns whether the molecule falls strictly under 10 µg/mL in IC90. Query: COc1nc2ccc(Br)cc2cc1C(c1ccccc1)C(O)(CCN1CCCCC1)c1ccc2cc(Br)ccc2c1 (stereo not shown)
Response given: Criterion not met

* * *

Tested on: Pseudomonas aeruginosa (ATCC27853)
Experiment: Microtitre plate assay, IC90 determination, PAE 27853
Format: cell-based
Conditions: Pseudomonas aeruginosa, ATCC27853, 24 h, 90% inhibitory concentration for bacterial growth, 37° C., resazurin fluorescence, read-out: IC90 (μg/ml) PAE 27853
# note: boundary value 10 µg/mL maps to 0 (no); IC90 below it maps to 1 (yes)

Here's what some known entries look like.
compound: COc1nc2ccc(-c3ccccc3)cc2cc1C(c1ccccc1)C(O)(CCN(C)C)c1ccccc1 (centres unmarked)
classification: 1 (yes)

compound: COc1nc2ccc(Br)cc2cc1C(c1ccccc1)C(O)(CCN(C)C)c1ccc2c(c1)OCCO2 (centres unmarked)
classification: 0 (no)

compound: CCOc1nc2ccc(Br)cc2cc1C(c1ccccc1)C(O)(CCN(C)C)c1ccccc1 (centres unmarked)
classification: 0 (no)

Challenge: API: query returns whether the compound falls strictly under 10 µg/mL in IC90. Query: COc1nc2ccc(Br)cc2cc1C(c1ccccc1)C(O)(CCN(C)C)c1ccccc1F (centres unmarked)
Response given: 0 (no)

Challenge: API: query returns whether the compound falls strictly under 10 µg/mL in IC90. Query: CSc1nc2ccc(Br)cc2cc1C(c1ccccc1)C(O)(CCN(C)C)c1ccccc1 (centres unmarked)
Response given: 0 (no)

Challenge: API: query returns whether the compound falls strictly under 10 µg/mL in IC90. Query: COc1nc2ccc(Br)cc2cc1C(c1ccccc1)C(O)(CCN(C)C)c1ccc2ccccc2c1 (centres unmarked)
Response given: 1 (yes)

Challenge: API: query returns whether the compound falls strictly under 10 µg/mL in IC90. Query: COc1nc2ccc(Cl)cc2cc1C(c1ccccc1)C(O)(CCN(C)C)c1ccccc1 (centres unmarked)
Response given: 0 (no)

Challenge: API: query returns whether the compound falls strictly under 10 µg/mL in IC90. Query: COc1nc2ccc(Br)cc2cc1C(c1ccccc1)C(O)(CCN(C)C)c1ccc2c(c1)OCO2 (centres unmarked)
Response given: 0 (no)

Challenge: API: query returns whether the compound falls strictly under 10 µg/mL in IC90. Query: COc1nc2ccc(Br)cc2cc1C(c1ccccc1)C(O)(CCN(C)C)C1CCN(C(=O)c2ccccc2)CC1 (centres unmarked)
Response given: 0 (no)

Challenge: API: query returns whether the compound falls strictly under 10 µg/mL in IC90. Query: COc1nc2ccc(Br)cc2cc1C(c1ccccc1)C(O)(CCN(C)C)c1cccc(F)c1 (centres unmarked)
Response given: 0 (no)

Challenge: API: query returns whether the compound falls strictly under 10 µg/mL in IC90. Query: COc1nc2ccc(Br)cc2cc1C(c1ccccc1)C(O)(CCN1CCCCC1)c1ccccc1 (centres unmarked)
Response given: 0 (no)

Challenge: API: query returns whether the compound falls strictly under 10 µg/mL in IC90. Query: COc1nc2ccc(Br)cc2cc1C(c1ccc(Cl)cc1)C(O)(CCN(C)C)c1ccccc1 (centres unmarked)
Response given: 1 (yes)

Challenge: API: query returns whether the compound falls strictly under 10 µg/mL in IC90. Query: COc1nc2ccc(Br)cc2cc1C(c1ccccc1)C(O)(CCN(C)C)c1ccc(Cl)cc1 (centres unmarked)
Response given: 0 (no)

Taken from patent US7709498B2.
